test: inhibitors of TNFa-induced NFkB p65 translocation, primary screen, imaging, HUVEC, MLSMR starter and 10KST1 sets (AID 438); details: HUVEC TNFa-induced p65 nuclear translocation; at 2 µM, active compounds read high, 0% TNFa-plus-vehicle, 100% no-TNFa wells;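 note: compound added about 3h40 before a 20 min TNFalpha stimulation; signal is the nuclear over cytoplasmic p65 intensity ratio per well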
measured-metric: inhibition (%)
Please state the figure in %; there is no need to write the unit.

Solved cases (5 shown):
molecule	inhibition (%)
COc1ccc(C)cc1S(=O)(=O)Nc1cccnc1	0.4
CC(=O)/C(C#N)=C1\NC(=O)C(Cc2ccccc2)S1 (stereo not drawn)	-16.2
CCOC(=O)c1[nH]nc(N)c1NC(=O)c1ccc(Cl)cc1Cl	-4.9
CCCC(CCC(=O)Nc1ccc(C(=O)OCC)cc1)C(=O)O (stereo not drawn)	-0.1
CCC(=O)Nc1nc(C)c(Oc2ccccc2)c(=O)[nH]1	-5.5

Given item O=C(COc1ccc(F)cc1Br)N1CCc2ccccc21 , the value recorded as its inhibition is -7
